- tgt: human serotonin 5-HT7 receptor subtype (Homo sapiens, UniProt P34969)
- Construct: expressed in transfected cells
- Sequence (P34969 whole entry): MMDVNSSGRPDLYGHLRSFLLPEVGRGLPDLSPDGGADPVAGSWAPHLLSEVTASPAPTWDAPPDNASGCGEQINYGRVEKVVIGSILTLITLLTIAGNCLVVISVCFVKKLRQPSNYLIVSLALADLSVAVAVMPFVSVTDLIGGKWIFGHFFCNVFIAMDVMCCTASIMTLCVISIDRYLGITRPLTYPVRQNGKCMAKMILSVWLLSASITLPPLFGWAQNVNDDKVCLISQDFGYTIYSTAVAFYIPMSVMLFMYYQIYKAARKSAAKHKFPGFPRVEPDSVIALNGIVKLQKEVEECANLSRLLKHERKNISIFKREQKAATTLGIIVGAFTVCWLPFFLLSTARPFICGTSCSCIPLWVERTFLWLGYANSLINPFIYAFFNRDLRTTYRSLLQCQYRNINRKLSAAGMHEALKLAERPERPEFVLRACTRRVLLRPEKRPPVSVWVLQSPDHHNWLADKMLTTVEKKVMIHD
- test name: Binding affinity for 5-HT7 receptor ([3H]-5CT binding test)
- test settings: [3H]-5CT 1 nM, membrane fraction of cells expressing human 5-HT7, 37° C. 30 minutes; Ki calculated from IC50
- Procedure: Test Example 1 Binding Affinity for 5-HT7 Rector Cultured cells capable of expressing human serotonin 5-HT7 receptor subtype were harvested in an assay buffer solution (50 mM Tris-HCl containing 10 mM MgCl2and 0.5 mM EDTA, pH 7.4) and homogenized with a Potter tripe homogenizer, and then the membrane fraction was centrifuged for 20 minutes at 39,000 g and at 4° C. […]
assay metric: Ki (nM)
Give bare numbers, in nM.

O=C1Nc2cccc3c2C1(CCCCN1CCc2sccc2C1)CCC3 (stereo not drawn) [Compd. of Syn. Ex. 17c]    0.9

For each of the items listed, what is its Ki?
1. COC(=O)n1c2c(c3ccccc31)CCN(CCCCC13CCCc4cccc(c41)NC3=O)C2 (stereo not drawn) [Compd. of Syn. Ex. 17a]
2. O=C1Nc2cccc3c2C1(CCCCN1CCN(C2CCCc4ccccc42)CC1)CCC3 (stereo not drawn) [Compd. of Syn. Ex. 10d]
3. O=C1Nc2cccc3c2C1(CCCCN1CCN2c4ccccc4[S+]([O-])CC2C1)CCC3 (stereo not drawn) [Compd. of Syn. Ex. 10b]

9
9.8
7
